- Tested on: OVCAR-5
- Test Summary: NCI tumour cell line growth inhibition, 48 h
Calls of active or inactive are those of the source. No stated cut-off is given here; in the data, active = GI50 up to about 1.1 µM and inactive = higher.
Parameter: GI50

Ask: Provide value of GI50 for this record tested with OVCAR-5: COc1ccc(C(CC(C)=O)c2c(O)c3ccccc3oc2=O)cc1OC (stereo not drawn)
Reply: > 100 µM (inactive)

State recorded GI50 for all listed molecules.
1. CCOP(=O)(OCC)C(Cc1ccc(Cl)cc1)NS(=O)(=O)c1ccc(C)cc1 (stereo not drawn)
2. CCOP(=O)(OCC)/C(C#N)=C/c1ccc(-c2cc(C(F)(F)F)cc(C(F)(F)F)c2)o1

Reply:
> 100 µM (inactive)
13.3 µM (inactive)

State recorded GI50 for all listed molecules.
1. CC1=C(C(=O)NCc2ccccc2)C(c2ccc(C3C(C(=O)NCc4ccccc4)=C(C)NC(C)=C3C(=O)NCc3ccccc3)cc2)C(C(=O)NCc2ccccc2)=C(C)N1
2. COC(=O)C(C(=O)OC)C1CCCC(=O)C1 (stereo not drawn)
3. Cc1ccc(NC(=O)CC/C(CC(=O)C(C)(C)C)=N/Nc2nnc(C)n2N)cc1C
4. O=[N+]([O-])c1ccc(C(c2c[nH]c3ccccc23)c2c[nH]c3ccccc23)cc1
5. COc1cc2c(cc1OCCCCCOc1cc3c(cc1OC)C(=O)N1CCC[C@H]1CN3)N=C[C@@H]1CCCN1C2=O
6. Cc1cc(NC(=O)C(=O)Cc2cnc3ccccc3n2)c(S(=O)(=O)O)cc1Cl
7. CC(/C=C/C=C/C=C/C=C/C=C/C(=O)C1=C(O)C(CCC(=O)O)N(C)C1=O)=C\C(C)C(OC1CC(O)C(O)C(C)O1)C(C)C (stereo not drawn)

Reply:
1. 23.7 µM (inactive)
2. > 100 µM (inactive)
3. > 100 µM (inactive)
4. 23.6 µM (inactive)
5. 16.9 µM (inactive)
6. > 100 µM (inactive)
7. 2.27 µM (inactive)

State recorded GI50 for all listed molecules.
1. CNc1ncc(-c2nnnn2-c2ccccc2)c(CN(C)C)n1
2. C=C1[C@H](OCC(C)C)[C@@H](OC(=O)C(C)CC)[C@@H](O)C(C)(C)/C=C/[C@H](C)C(=O)[C@@]2(O)C[C@H](C)[C@H](O)[C@@H]2[C@H]1OC(=O)C(C)CC (stereo partly drawn)
3. CC(=O)c1ccccc1NS(=O)(=O)c1ccc2nc(C)n(NS(=O)(=O)c3ccccc3C(C)=O)c(=O)c2c1
4. O=C1C=C(C2=CC(=O)C(=O)c3ccccc32)c2ccccc2C1=O
5. CC1=NN(C(=O)CC(=O)Nc2cccc(C)c2)C(=O)C1/N=N/c1ccc(C(=O)O)cc1 (stereo not drawn)
6. c1ccc(/N=C2\c3ccsc3/C(=N/c3ccccc3)c3ccsc32)cc1

Reply:
> 100 µM (inactive)
6.37 µM (inactive)
> 100 µM (inactive)
18.8 µM (inactive)
> 100 µM (inactive)
1.67 µM (inactive)

State recorded GI50 for all listed molecules.
1. CCCCCCCCCC[C@@H](O)[C@H]1CC[C@H]([C@H]2CC[C@H]([C@H](O)CCCCCCCCCC[C@@H]3CC(CC(C)=O)C(=O)O3)O2)O1 (stereo partly drawn)
2. Cn1c(Nc2ccccc2)c(/C=N\c2ccccc2)c(=O)n(C)c1=O

Reply:
1. > 50 µM (inactive)
2. > 100 µM (inactive)
